Parameter IC50: see the listing below.
Target: HCV polymerase (NS5B) type 1a (Hepatitis C virus genotype 1a)
Construct: made in house; host or cells: Escherichia coli (by the 'similar method' of the 1b enzyme)
Assay: Assay of enzyme (HCV polymerase) inhibitory activity, type 1a enzyme
Assay type: biochemical, HCV type 1a (cloned from the blood of patients)
Settings: HCV polymerase inhibitory activity IC50, 1a, type 1a enzyme
Method: The evaluation of the HCV polymerase inhibitory activity of the compound of the present invention is explained in the following. This polymerase is an enzyme coded for by the non-structural protein region called NS5B on the genome RNA of HCV. i) Preparation of Enzyme (HCV Polymerase) […] The HCV polymerase inhibitory activity (IC50) of the compound of the present invention was calculated from the values of radioactivity of the enzyme reaction with and without the test substance. […]
endpoint: IC50

1. Cc1nc(Cl)c2sc(N3CCN(S(=O)(=O)c4ccc(OC(F)(F)F)cc4)[C@@H](C(=O)NCc4ccc(OC(F)F)cc4)C3)nc2n1 [Example 941] | < 100 nM
2. CCCc1ccc(CNC(=O)[C@H]2CN(c3nc4cn[nH]c(=O)c4s3)CCN2S(=O)(=O)c2ccc(CC)cc2)cc1 [Example 812] | < 100 nM
3. CC(=O)N1CCN(S(=O)(=O)c2ccc(OC(F)(F)F)cc2)[C@@H](C(=O)NCCc2ccc(O)cc2)C1 [Example 675] | > 1000 nM

----------
Parameter IC50: see the listing below.
Molecular target: HCV polymerase (NS5B) type 1b (Hepatitis C virus genotype 1b, UniProt P26663)
Construct: a region encoding NS5B (J Virol 1991 March, 65(3), 1105-13, 544 amino acids after deletion of 47 amino acids on the C-terminal); 6xHis (C); made in house; host or cells: Escherichia coli
Experiment: Assay of enzyme (HCV polymerase) inhibitory activity, type 1b enzyme
Type: biochemical, HCV BK strain (type 1b)
Conditions: HCV polymerase inhibitory activity (IC50), 1b, type 1b enzyme 0.5 μg/ml, 25° C., 60 min
Counter-ions that a name gives are not always drawn.
endpoint: IC50

1) CCCc1ccc(CNC(=O)[C@H]2CN(c3nc4c(s3)CN(Cc3ccccc3)CC4)CCN2S(=O)(=O)c2ccc(OC(F)(F)F)cc2)cc1 | < 100 nM
2) CC(C)c1ccc(CNC(=O)[C@H]2CN(C(=O)Nc3cccc(OCC(=O)O)c3)CCN2S(=O)(=O)c2ccc(C(F)(F)F)cc2)cc1 | 100 to 1000 nM
3) CC(=O)N1CCN(S(=O)(=O)c2ccc(Br)s2)C(C(=O)NCc2ccc(C(F)(F)F)cc2)C1 (centres unmarked) | > 1000 nM
4) CCCC(CCC)c1ccc(CNC(=O)C2CN(C(C)=O)CCN2S(=O)(=O)c2ccc(C(C)C)cc2)cc1 (centres unmarked) | > 1000 nM
5) CC(C)c1ccc(CNC(=O)[C@H]2CN(C(=O)Cn3ncnn3)CCN2S(=O)(=O)c2ccc(C(F)(F)F)cc2)cc1 | < 100 nM
6) CC(C)c1ccc(S(=O)(=O)N2CCN(C(=O)CCO)CC2C(=O)NCc2ccc(C(F)(F)F)cc2)cc1 (centres unmarked) | > 1000 nM
7) CCC(F)(F)c1ccc(CNC(=O)[C@H]2CN(C(=O)C(C)(C)C)CCN2S(=O)(=O)c2ccc(OC(F)(F)F)cc2)cc1 | > 1000 nM
8) CCC(F)(F)c1ccc(CNC(=O)[C@H]2CN(C(=O)Nc3nnc(C(C)=O)s3)CCN2S(=O)(=O)c2ccc(OC(F)(F)F)cc2)cc1 | > 1000 nM
9) CC(=O)N1CCN(S(=O)(=O)c2cnc(Cl)c(Br)c2)C(C(=O)NCc2ccc(C(F)(F)F)cc2)C1 (centres unmarked) [Example 69, hydrochloride] | > 1000 nM
10) CC(=O)N1CCN(S(=O)(=O)c2ccc(Br)c(F)c2)[C@@H](C(=O)NCc2ccc(C(C)C)cc2)C1 | 100 to 1000 nM
11) O=C(NCc1ccc(Cl)cc1)[C@H]1CN(c2cnc3cncnc3n2)CCN1S(=O)(=O)c1ccc(OC(F)(F)F)cc1 | < 100 nM
12) CN(C)c1ccc(CNC(=O)[C@H]2CN(C(=O)CN3CCOCC3)CCN2S(=O)(=O)c2ccc(I)cc2)cc1 | 100 to 1000 nM
13) Cc1nc(N2CCN(S(=O)(=O)c3ccc(OC(F)(F)F)cc3)[C@@H](C(=O)NCc3ccc(C(C)(C)C)cc3)C2)sc1-c1nnn[nH]1 | < 100 nM
14) CCCc1ccc(CNC(=O)[C@H]2CN(c3nc4c(s3)CNCC4)CCN2S(=O)(=O)c2ccc(OC(F)(F)F)cc2)cc1 | < 100 nM
15) CC(C)c1ccc(CNC(=O)[C@H]2CN(c3nc(Br)n[nH]3)CCN2S(=O)(=O)c2ccc(C(F)(F)F)cc2)cc1 | < 100 nM
16) CN(C)c1ccc(CNC(=O)[C@H]2CN(C(=O)CN3CCCCC3)CCN2S(=O)(=O)c2ccc(I)cc2)cc1 | > 1000 nM
17) CC(=O)N1CCN(S(=O)(=O)c2ccc(OC(F)(F)F)cc2)[C@@H](C(=O)NCc2cccc(O)c2)C1 | > 1000 nM
18) COc1ccc(CNC(=O)C2CN(C(C)=O)CCN2S(=O)(=O)c2ccc(C(C)C)cc2)cc1OC (centres unmarked) | > 1000 nM
19) CC(=O)N1CCN(S(=O)(=O)c2ccc(OC(F)(F)F)cc2)[C@@H](C(=O)NCc2ccc(-c3cccs3)cc2)C1 | 100 to 1000 nM
20) CCCc1ccc(CNC(=O)[C@H]2CN(c3ccncn3)CCN2S(=O)(=O)c2ccc(OC(F)(F)F)cc2)cc1 | < 100 nM
21) CCCc1ccc(CNC(=O)[C@H]2CN(c3nc(C)c(C(=O)O)s3)CCN2S(=O)(=O)c2ccc(OC(F)(F)F)cc2)c(C)c1 | < 100 nM
22) CCOC(=O)Cc1nnn(CC(=O)N2CCN(S(=O)(=O)c3ccc(C(F)(F)F)cc3)[C@@H](C(=O)NCc3ccc(C(C)C)cc3)C2)n1 | < 100 nM
23) CCOC(=O)Cn1nnnc1CC(=O)N1CCN(S(=O)(=O)c2ccc(OC(F)(F)F)cc2)[C@@H](C(=O)NCc2ccc(C(F)(F)CC)cc2)C1 | > 1000 nM
24) CC(=O)N1CCN(S(=O)(=O)c2ccc(OC(F)(F)F)cc2)[C@@H](C(=O)NCc2ccc(Br)cc2)C1 | 100 to 1000 nM
25) O=C(NCc1ccc(OC(F)(F)F)cc1)[C@H]1CN(C(=O)Cc2ccncc2)CCN1S(=O)(=O)c1ccc(OC(F)(F)F)cc1 | 100 to 1000 nM
26) CC(=O)N1CCN(S(=O)(=O)c2ccc(C(=O)O)cc2)C(C(=O)NCc2ccc(C(F)(F)F)cc2)C1 (centres unmarked) | > 1000 nM

----------
Biological target: HCV polymerase (NS5B) type 1b (Hepatitis C virus genotype 1b, UniProt P26663)
Construct: a region encoding NS5B (J Virol 1991 March, 65(3), 1105-13, 544 amino acids after deletion of 47 amino acids on the C-terminal); 6xHis (C); made in house; host or cells: Escherichia coli
Test: Assay of enzyme (HCV polymerase) inhibitory activity, type 1b enzyme
Type: biochemical, HCV BK strain (type 1b)
Conditions: HCV polymerase inhibitory activity IC50, 1b, type 1b enzyme
endpoint: IC50

1. CCC(F)(F)c1ccc(CNC(=O)[C@H]2CN(c3cnc4cncnc4n3)CCN2S(=O)(=O)c2ccc(-c3cccc(C(=O)O)c3)cc2)cc1 [Example 753] | < 100 nM
2. CC(C)(O)c1ncc2sc(N3CCN(S(=O)(=O)c4ccc(C(F)(F)F)cc4)[C@@H](C(=O)NCc4ccc(OC(F)(F)F)cc4)C3)nc2n1 [Example 1075] | < 100 nM
3. CCC(F)(F)c1ccc(CNC(=O)[C@H]2CN(c3ccc4nccnc4n3)CCN2S(=O)(=O)c2ccc(OC(F)(F)F)cc2)cc1 [Example 748] | < 100 nM
4. CCOC(=O)c1ccc2ncc(N3CCN(S(=O)(=O)c4ccc(OC(F)(F)F)cc4)[C@@H](C(=O)NCc4ccc(C(F)(F)CC)cc4)C3)nc2c1 [Example 710] | 100 to 1000 nM
5. CC(C)(C)c1ccc(CNC(=O)[C@H]2CN(C(=O)/C=C\C(=O)O)CCN2S(=O)(=O)c2ccc(OC(F)(F)F)cc2)cc1 [Example 665] | > 1000 nM
6. CCC(F)(F)c1ccc(CNC(=O)[C@H]2CN(c3nc4cn[nH]c(=O)c4s3)CCN2S(=O)(=O)c2ccc(OC(F)(F)F)cc2)cc1 [Example 821] | < 100 nM

----------
Parameter IC50: see the listing below.
Biological target: HCV polymerase (NS5B) type 1b (Hepatitis C virus genotype 1b)
Construct: a region encoding NS5B (J Virol 1991 March, 65(3), 1105-13, 544 amino acids after deletion of 47 amino acids on the C-terminal); 6xHis (C); made in house; host or cells: Escherichia coli
Assay: Assay of enzyme (HCV polymerase) inhibitory activity, type 1b enzyme
Assay type: biochemical, HCV BK strain (type 1b)
Settings: HCV polymerase inhibitory activity (IC50), 1b, type 1b enzyme 0.5 μg/ml, 25° C., 60 min
endpoint: IC50

1. CCC(F)(F)c1ccc(CNC(=O)[C@H]2CN(c3nc4nc[nH]c(=O)c4s3)CCN2S(=O)(=O)c2ccc(OC(F)(F)F)cc2)cc1 | < 100 nM
2. Cc1cc(C2CC2)ccc1CNC(=O)[C@H]1CN(c2nc(C)c(C(=O)O)s2)CCN1S(=O)(=O)c1ccc(OC(F)(F)F)cc1 | < 100 nM
3. CCC(F)(F)c1ccc(CNC(=O)[C@H]2CN(C(=O)Nc3cc(C)no3)CCN2S(=O)(=O)c2ccc(OC(F)(F)F)cc2)cc1 | < 100 nM
4. CC(=O)N1CCN(S(=O)(=O)c2ccc(Br)cc2F)[C@@H](C(=O)NCc2ccc(C(C)C)cc2)C1 | 100 to 1000 nM
5. Cc1nc(N2CCN(S(=O)(=O)c3ccc(OC(F)(F)F)cc3)[C@@H](C(=O)NCc3ccc(N4CCC4)nc3)C2)sc1C(=O)O | < 100 nM
6. CCC(F)(F)c1ccc(CNC(=O)[C@H]2CN(C(=O)Nc3ccnc(C(=O)N4CCCC4)c3)CCN2S(=O)(=O)c2ccc(OC(F)(F)F)cc2)cc1 | < 100 nM
